System: A673/TR/shEF
experiment.summary: cell viability (LOESS-normalised, relative to median of negative controls) (log2 ratio); higher = more viable cells (less compound effect), active = hit call of the paper (over 3 MAD below the median)
particulars: 0.25 µM; library screen: screen1; EWS-FLI1 expression: low (doxycycline-induced shRNA knockdown); treatment time: 72 h
The campaign covered roughly 3,200 compounds. About 300 (9.4%) showed activity. This excerpt belongs to a sample that is enriched for actives.
// NB: equality with 0.06 counts as n; only cell viability (log2) strictly below is y

Solved entries (count: 4):
[[record]]
compound = "COc1c(Cl)c(C)c2c(c1Cl)OC(=O)c1c(C)c(Cl)c(O)c(Cl)c1O2"
class_assignment = "y"

[[record]]
compound = "C[C@]12CC[C@@H]3c4ccc(O)cc4CC[C@H]3[C@@H]1CC[C@@H]2O"
class_assignment = "y"

[[record]]
compound = "CC[n+]1c(-c2ccccc2)c2cc(N)ccc2c2ccc(N)cc21"
class_assignment = "y"

[[record]]
compound = "O=C(O[C@@H]1Cc2c(O)cc(O)cc2O[C@@H]1c1cc(O)c(O)c(O)c1-c1c([C@H]2Oc3cc(O)cc(O)c3C[C@H]2O)cc(O)c(O)c1O)c1cc(O)c(O)c(O)c1"
class_assignment = "n"


Could you please tell me whether cell viability (log2) recorded for COC1[C@H](O)[C@@H](O)C(O)[C@H](O)[C@H]1O (some centres undefined) is less than 0.06?
y

Could you please tell me whether cell viability (log2) recorded for C=CCN1C(=O)C(=C2C(=O)N(C)c3ccccc32)SC1=S is less than 0.06?
n

Could you please tell me whether cell viability (log2) recorded for Cc1ccc(NC(=O)c2ccc(OC3CSC3)cc2)cc1 is less than 0.06?
y

Could you please tell me whether cell viability (log2) recorded for CC[C@H](C)C(=O)O[C@H]1C[C@@H](C)C=C2C=C[C@H](C)[C@H](CC[C@@H]3C[C@@H](O)CC(=O)O3)[C@H]21 is less than 0.06?
y

Could you please tell me whether cell viability (log2) recorded for COc1cc(CN2CCN(Cc3cccc(Cl)c3)CC2)c([N+](=O)[O-])cc1OC is less than 0.06?
y
